- System: MCF7 multi-cell spheroids with HUVEC/MSC, viability
- METHOD SUMMARY: Anticancer human tumor MCF7 cell line growth inhibition [IpAb];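 also: spheroids exposed to agents for seven days before readout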
- EXPERIMENTAL SETUP: second compound 0.316 µM; first compound 1 µM; hits give low values
Lab note: cut-off is 60%. Strictly less in viability, T/C is t. Exactly 60% or more is f.

Request: Strictly below 60% in viability, T/C? Cn1nccc1Nc1nccc(-c2ccn(C(CO)c3ccc(Cl)c(F)c3)c(=O)c2)n1 (stereo not given) + CC(C)NCC(C(=O)N1CCN(c2ncnc3c2C(C)CC3O)CC1)c1ccc(Cl)cc1
Response: f

Request: Consider Cn1ncc(Cl)c1-c1cc(C(=O)NC(CN)Cc2cccc(F)c2)sc1Cl (stereo not given) + CCN1CCN(Cc2ccc(Nc3ncc(F)c(-c4cc(F)c5nc(C)n(C(C)C)c5c4)n3)nc2)CC1 . Does its viability, T/C lie strictly below 60%?
Response: f

Request: Regarding Cn1nccc1Nc1nccc(-c2ccn(C(CO)c3ccc(Cl)c(F)c3)c(=O)c2)n1 (stereo not given) + CCN1CCN(Cc2ccc(Nc3ncc(F)c(-c4cc(F)c5nc(C)n(C(C)C)c5c4)n3)nc2)CC1 , kindly confirm whether its viability, T/C is beneath 60%.
Response: f

Request: I wonder whether C=CC(=O)N1CCN(c2nc(=O)n(-c3c(C)ccnc3C(C)C)c3nc(-c4c(O)cccc4F)c(F)cc23)C(C)C1 (stereo not given) + CCN1CCN(Cc2ccc(Nc3ncc(F)c(-c4cc(F)c5nc(C)n(C(C)C)c5c4)n3)nc2)CC1 has viability, T/C below 60%. Can you tell?
Response: f

Request: Threshold test, viability, T/C < 60%: COc1c(OCCCN2CCOCC2)ccc2c3n(c(=NC(=O)c4cnc(N)nc4)nc12)CCN3 + CC(C)NCC(C(=O)N1CCN(c2ncnc3c2C(C)CC3O)CC1)c1ccc(Cl)cc1
Response: t

Request: Quick check: does CC1(C)CCC(CN2CCN(c3ccc(C(=O)NS(=O)(=O)c4ccc(NCC5CCOCC5)c([N+](=O)[O-])c4)c(Oc4cnc5[nH]ccc5c4)c3)CC2)=C(c2ccc(Cl)cc2)C1 + CC(C)NCC(C(=O)N1CCN(c2ncnc3c2C(C)CC3O)CC1)c1ccc(Cl)cc1 have viability, T/C under 60%?
Response: f

Request: Dear reviewer, please state whether CCCS(=O)(=O)Nc1ccc(F)c(C(=O)c2c[nH]c3ncc(-c4ccc(Cl)cc4)cc23)c1F + CC(C)NCC(C(=O)N1CCN(c2ncnc3c2C(C)CC3O)CC1)c1ccc(Cl)cc1 has viability, T/C strictly beneath 60%.
Response: f

Request: Identify whether the compound CCCS(=O)(=O)Nc1ccc(F)c(C(=O)c2c[nH]c3ncc(-c4ccc(Cl)cc4)cc23)c1F + CCN1CCN(Cc2ccc(Nc3ncc(F)c(-c4cc(F)c5nc(C)n(C(C)C)c5c4)n3)nc2)CC1 records viability, T/C below 60%.
Response: f

Request: Input Cn1ncc(Cl)c1-c1cc(C(=O)NC(CN)Cc2cccc(F)c2)sc1Cl (stereo not given) + CC(C)NCC(C(=O)N1CCN(c2ncnc3c2C(C)CC3O)CC1)c1ccc(Cl)cc1 ; condition: viability, T/C strictly below 60%. Does it hold?
Response: t

Values were extracted from PubChem BioAssay AID2060329.
